Hello, the source for this data is patent US8071786B2, in case you need it.

Target: human 5-HT2C-INI (Homo sapiens, UniProt P28335)
Construct: expressed in transfected cells
Sequence (P28335 33-458): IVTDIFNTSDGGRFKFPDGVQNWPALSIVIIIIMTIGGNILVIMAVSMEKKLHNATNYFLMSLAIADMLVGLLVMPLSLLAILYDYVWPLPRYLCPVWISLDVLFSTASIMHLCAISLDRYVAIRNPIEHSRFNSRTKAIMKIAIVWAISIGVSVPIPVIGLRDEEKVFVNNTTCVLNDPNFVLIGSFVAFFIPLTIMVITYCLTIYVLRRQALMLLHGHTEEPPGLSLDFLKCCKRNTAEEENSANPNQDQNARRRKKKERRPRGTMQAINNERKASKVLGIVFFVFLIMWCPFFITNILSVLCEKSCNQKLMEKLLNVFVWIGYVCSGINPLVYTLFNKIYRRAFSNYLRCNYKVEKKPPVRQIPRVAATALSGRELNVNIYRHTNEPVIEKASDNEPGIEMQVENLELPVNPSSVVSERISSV
Assay: Phosphoinositide hydrolysis functional assay
Type: cell-based
Conditions: value in brackets; read-out: percent Vmax relative to serotonin at 100%, 5-HT2C (converted)
What Emax was measured for each of the following?

Look up Emax for this compound: CCCn1cc(CCN(C)C)c2c(O)ccc(F)c21 [Compound O-3952]
89%

Consider the compound shown here: CC(C)n1cc(CCN(C)C)c2c(O)cc(F)cc21 [Compound O-4310] What is its recorded Emax?
~50%

# get_value(readout='Emax', item= CCn1cc(CCN(C)C)c2c(O)cc(F)cc21 [Compound O-4284] )
73%

For CCn1cc(CCN(C)C)c2c(O)ccc(F)c21 [Compound O-3943] , what is its reported Emax?
100%

Look at this compound and give its reported Emax. CN(C)CCc1cn(C)c2c(F)ccc(O)c12 [Compound O-3804]
89.9%

Which Emax is listed for CN(C)CCc1cn(CC2CC2)c2cc(F)cc(O)c12 [Compound O-4287] ?
41%

Can you share its Emax? I mean this compound: CN(C)CCc1cn(C)c2cc(F)cc(O)c12 [Compound O-4244]
75%

Entry under review: CCCn1cc(CCN(C)C)c2c(O)cc(F)cc21 [Compound O-4285] . Reported Emax?
~75%
